Answer each item with its documented TGI.
System: SF-295 CNS
Measurement description: NCI tumour cell line growth inhibition, 48 h

Task: // returns reported TGI for input COc1cc2c(c(OC)c1OC)[C@@H]1CCCCC[C@@H]1CCC2=O
Output: > 100 µM

Task: // returns reported TGI for input CC1Nc2ccccc2NC1C=C(C#N)C#N (configuration not stated)
Output: 28.9 µM

Task: // returns reported TGI for input CC1(c2cccc(C(F)(F)F)c2)CC(c2cccc(C(F)(F)F)c2)=C(C#N)C(=C(C#N)C#N)N1 (configuration not stated)
Output: 31 µM

Task: // returns reported TGI for input COc1ccc2c(c1)C1Oc3ccccc3CC1CO2 (configuration not stated)
Output: > 100 µM

Task: // returns reported TGI for input COc1ccc(-c2cc(-c3ccco3)c(C#N)c(=O)n2C2OC(COC(C)=O)C(OC(C)=O)C(OC(C)=O)C2OC(C)=O)cc1 (configuration not stated)
Output: > 100 µM

Task: // returns reported TGI for input C=CCNC(=S)NC=C(C(N)=O)C(N)=O
Output: > 100 µM

Task: // returns reported TGI for input O=C1c2ccccc2-n2c1nc1ccc([N+](=O)[O-])cc1c2=O
Output: 79.7 µM

Task: // returns reported TGI for input NNC(=S)N/N=C(\c1nc2ccc(Cl)cc2[nH]c1=O)C(O)c1cccc([N+](=O)[O-])c1 (configuration not stated)
Output: > 100 µM

Task: // returns reported TGI for input c1ccc(Nc2nnc(-c3ccccc3Nc3ccccc3-c3nnc(Nc4ccccc4)s3)s2)cc1
Output: > 100 µM

Task: // returns reported TGI for input CC(=O)O[C@H]1[C@@H](N2CCCCC2)C[C@H]2[C@@H]3CC=C4C[C@@H](N5CCCC5)CC[C@]4(C)[C@H]3CC[C@@]21C
Output: > 100 µM

Task: // returns reported TGI for input Cc1nc2ccccc2c(/C=C/c2ccc(C(F)(F)F)cc2)c1C(=O)/C=C/c1ccccc1
Output: 3.22 µM

Task: // returns reported TGI for input COc1cc(C)cc2c1C(=O)C(NC(C)=O)=CC2=O
Output: > 100 µM

Task: // returns reported TGI for input Nc1ccccc1SC(CC(=O)c1ccccc1)c1c(Cl)cccc1Cl (configuration not stated)
Output: 19.1 µM

Task: // returns reported TGI for input CCC(=O)NC(NNS(=O)(=O)c1ccc(C)cc1)(C(F)(F)F)C(F)(F)F
Output: > 100 µM

Task: // returns reported TGI for input O=C(/C=C/c1cccc(Cl)c1)c1ccccc1
Output: 18 µM

Task: // returns reported TGI for input O=C(O)C(Cc1ccc(O)cc1)N=Cc1nc(-c2ccccc2)oc1O (configuration not stated)
Output: > 100 µM

Task: // returns reported TGI for input O=C1C=CC(=O)N1c1ccc2ccccc2c1
Output: > 100 µM

Task: // returns reported TGI for input CN1CC[C@@]2(c3cccc(O)c3)CC(=O)/C(=C/c3ccc(Cl)c(Cl)c3)[C@H]1C2
Output: 3.86 µM

Task: // returns reported TGI for input C(#Cc1ccccc1C#Cc1cnccn1)c1cnccn1
Output: > 74 µM

Task: // returns reported TGI for input Cc1ccnn1CCc1ccc(Cl)cc1Cl
Output: 52.9 µM

Task: // returns reported TGI for input Nc1nc2cc(COc3ccc(C(=O)O)cc3)ccc2nc1-c1ccccc1
Output: > 10 µM

Task: // returns reported TGI for input CC1=NN(c2nc(N)nc(CCl)n2)C(C)(C)C1
Output: > 74.5 µM

Task: // returns reported TGI for input Cc1c(C(=O)Nc2ccc(Oc3ccnc4cc(OCC(C)(C)O)ccc34)c(F)c2)c(=O)n(-c2ccccc2)n1C
Output: > 100 µM

Task: // returns reported TGI for input COC(=O)C1=CCC[C@H]2[C@@]1(COC(C)=O)CC[C@@H](C)[C@]2(C)CC(=O)c1ccoc1
Output: > 50 µM

Task: // returns reported TGI for input COc1cc(/C=C/C(=O)c2cccc(-n3cc(-c4ccccc4)[nH]c3=O)c2)ccc1O
Output: 21 µM

Task: // returns reported TGI for input CCCOC(=O)C1C(c2ccc(OC)cc2)NC(c2ccc(OC)cc2)C(C(=O)OCCC)S1(=O)=O (configuration not stated)
Output: > 100 µM

Task: // returns reported TGI for input CN(C)Cc1c[nH]c2nc[nH]c(=O)c12
Output: > 100 µM

Task: // returns reported TGI for input NNC(=O)c1cc(Cl)ccc1NC(=O)C12CC3CC(CC(C3)C1)C2
Output: > 100 µM

Task: // returns reported TGI for input O=[N+]([O-])C(=C1c2ccccc2-c2ccccc21)[N+](=O)[O-]
Output: > 10 µM

Task: // returns reported TGI for input CC1=C(C(=O)Nc2cc(F)c(F)cc2F)C(c2ccc(N(C)C)cc2)C(C(=O)Nc2cc(F)c(F)cc2F)=C(C)N1
Output: > 77.2 µM

Task: // returns reported TGI for input CCOC(=O)C(c1ccsc1)P(=O)(OCC)OCC (configuration not stated)
Output: 34 µM

Task: // returns reported TGI for input COc1ccc(C)cc1-c1ccc(-c2cc(C)ccc2OC)o1
Output: > 100 µM

Task: // returns reported TGI for input O=C1/C(=C/c2ccc([N+](=O)[O-])cc2)Oc2cc(O)ccc21
Output: > 100 µM

Task: // returns reported TGI for input C=CC(=O)N1CCN(c2nc(OC[C@@H]3CCCN3C)nc3c(F)c(-c4nc(N)cc(C)c4C(F)(F)F)c(Cl)cc23)[C@@H](C)C1
Output: 16.9 µM

Task: // returns reported TGI for input N#Cc1ccccc1NC(=O)C(O)C(O)C(O)C(O)C=O (configuration not stated)
Output: > 100 µM

Task: // returns reported TGI for input CCOC(=O)N1C/C(=C\c2ccc(N(C)C)cc2)C(=O)/C(=C/c2ccc(N(C)C)cc2)C1
Output: > 100 µM

Task: // returns reported TGI for input O=C(Nc1cccc2[nH]c(C(F)(F)F)nc12)c1ccc(Br)cc1F
Output: 10.3 µM

Task: // returns reported TGI for input COc1cc(C2c3cc4c(cc3[C@@H](Nc3cnc5ccccc5c3)C3COC(=O)[C@H]23)OCO4)cc(OC)c1O (some centres not stated)
Output: 1.14 µM

Task: // returns reported TGI for input COc1cccc(C2=C(c3cn(C)c4c(C)cccc34)C(=O)NC2=O)c1
Output: > 25 µM

Task: // returns reported TGI for input COC(=O)c1c(C)c2c(c(C)c1O)OC(=O)c1c(C)cc(O)c(C=O)c1O2
Output: > 100 µM

Task: // returns reported TGI for input Cc1ccc(-c2csc3ncnc(Nc4cccc(O)c4)c23)cc1
Output: 24.7 µM

Task: // returns reported TGI for input O=S(=O)(c1ccccc1)C1(C2(S(=O)(=O)c3ccccc3)CCN=N2)CCN=N1 (configuration not stated)
Output: > 100 µM

====

Test system: HS 578T breast
Measurement description: NCI tumour cell line growth inhibition, 48 h
Value type: TGI

Task: API: value(readout=TGI, system=HS 578T breast) for record COc1ccc(/C(=N/O)c2cc(F)c(F)c(OC)c2F)cc1O
Output: > 100 µM

Task: API: value(readout=TGI, system=HS 578T breast) for record C=C(Cl)C(Cl)(CBr)CCCC(C)C (stereo unspecified)
Output: 26.9 µM

Task: API: value(readout=TGI, system=HS 578T breast) for record CCOC(=O)C1=C(C)N(Cc2ccccc2)C2(O)C=CC(=O)C3C(=O)N(c4ccccc4)C(=O)C132 (stereo unspecified)
Output: 34 µM

Task: API: value(readout=TGI, system=HS 578T breast) for record CC(=O)/C=C1/C(=O)C(CC(C)C)=C1CC(C)C
Output: > 100 µM

Task: API: value(readout=TGI, system=HS 578T breast) for record COc1cccc2c1C(=O)c1c(O)c3c(c(O)c1C2=O)C[C@@](O)(C(=O)CO)C[C@@H]3OC1CC2C(OCN2CN2COC3C(C)OC(O[C@H]4C[C@](O)(C(=O)CO)Cc5c(O)c6c(c(O)c54)C(=O)c4c(OC)cccc4C6=O)CC32)C(C)O1 (stereo partly specified)
Output: > 1 µM

Task: API: value(readout=TGI, system=HS 578T breast) for record Cc1nc2sc(C(=O)Nc3cccc4c3OCCO4)c(N)c2cc1C(C)O (stereo unspecified)
Output: > 100 µM

Task: API: value(readout=TGI, system=HS 578T breast) for record CSCCCNC(=O)c1csc(-c2csc(CCNC(=O)CNC(=O)OC(C)(C)C)n2)n1
Output: > 100 µM

Task: API: value(readout=TGI, system=HS 578T breast) for record CC1=CC(=O)c2ccc3c4ccccc4n(C)c3c2C1=O
Output: > 100 µM

Task: API: value(readout=TGI, system=HS 578T breast) for record CCOC(=O)c1sc2c(c1OC(=O)c1ccco1)c(=O)n(-c1ccccc1)c(=S)n2-c1ccccc1
Output: > 100 µM

Task: API: value(readout=TGI, system=HS 578T breast) for record Cc1cc(NS(=O)(=O)c2ccc(NC(=O)c3ccc4nc5ccccc5c(Nc5ccc(S(N)(=O)=O)cc5)c4c3)cc2)no1
Output: 86.8 µM

Task: API: value(readout=TGI, system=HS 578T breast) for record O=NN(CC(=O)NNc1ccccc1)CC(=O)NNc1ccccc1
Output: > 100 µM

Task: API: value(readout=TGI, system=HS 578T breast) for record NC(N)=N/N=C/c1c(Cl)nc2n1CCS2
Output: > 100 µM

Task: API: value(readout=TGI, system=HS 578T breast) for record Cc1ncc2c(n1)CCC1=C2OS(=O)(=O)CC1N(C)C (stereo unspecified)
Output: > 100 µM

Task: API: value(readout=TGI, system=HS 578T breast) for record Nc1ncnc2occ(-c3ccc(NC(=O)Nc4cccc(C(F)(F)F)c4)cc3)c12
Output: 6.74 µM

Task: API: value(readout=TGI, system=HS 578T breast) for record O=C1c2c[n+](Cc3ccccc3)ccc2-c2nc3ccccc3c3ccnc1c23
Output: 10.2 µM

Task: API: value(readout=TGI, system=HS 578T breast) for record CCOC(=O)CCC(NC(=O)c1ccc(Oc2nc3cc(N)cc(N)c3nc2-c2ccccc2)cc1)C(=O)OCC (stereo unspecified)
Output: > 100 µM

Task: API: value(readout=TGI, system=HS 578T breast) for record CC1=NN(c2nc(N)nc(CCl)n2)C(C)(C)C1
Output: > 100 µM

Task: API: value(readout=TGI, system=HS 578T breast) for record COc1cc(C)cc2c1C(=O)C(NC(C)=O)=CC2=O
Output: > 100 µM

Task: API: value(readout=TGI, system=HS 578T breast) for record COc1ccc(-n2c(C)nc3ccc(NC4OCC(OC(C)=O)C(OC(C)=O)C4OC(C)=O)cc3c2=O)cc1 (stereo unspecified)
Output: > 100 µM

Task: API: value(readout=TGI, system=HS 578T breast) for record N=c1oc2ccccc2cc1C(=O)Nc1ccccn1
Output: > 100 µM

Task: API: value(readout=TGI, system=HS 578T breast) for record CC1=C(C(=O)Nc2cc(F)c(F)cc2F)C(c2ccc(N(C)C)cc2)C(C(=O)Nc2cc(F)c(F)cc2F)=C(C)N1
Output: > 100 µM
